# Test system: TK-10 renal
# ASSAY INFO: NCI tumour cell line growth inhibition, 48 h
Would you kindly list TGI for each of these molecules?

Answer with reported TGI of COc1cc(N2C(=O)C(=O)C3(CCCCC3)C2=O)cc(OC)c1OC > 100 µM

Answer with reported TGI of CC1(F)C=CC(=O)C=C1 > 100 µM

Answer with reported TGI of CCN1C(=O)C(=C/C=C/c2ccc(OC)cc2)C(=O)N(CC)C1=S 31.8 µM

Answer with reported TGI of c1ccc2c(c1)c1ccccc1c1n[se]nc21 > 100 µM

Answer with reported TGI of O=C1c2ccccc2C(=O)c2c1c(=O)c(=O)c1ccccc1c(=O)n2Cc1ccccc1 > 100 µM

Answer with reported TGI of Cc1ccc(C)c2c1C/C(=C\c1ccccc1C(=O)O)C2=O > 100 µM

Answer with reported TGI of CCC(O)CC1OC2(CCC1C)CC1OC(=O)/C=C\C(C)(O)C(O)C(C)C(O)C(OC3CC(OC)C(O)C(C)O3)C(O)C(C)(O)CCC/C=C/C3CC(C)COC3(O)CC(O2)C1C (centres undefined) 37 µM

Answer with reported TGI of COc1ccc(C(=C[N+](=O)[O-])c2ccc(OC)cc2)cc1 99.3 µM

Answer with reported TGI of C[C@]1(O)CC[C@H]2[C@@H]3CCc4cc(O)ccc4[C@H]3CC[C@@]21C 7.51 µM

Answer with reported TGI of NCCc1c[nH]c2ccc(OC(=O)C(=O)O)cc12 > 100 µM

Answer with reported TGI of COc1ccc(-c2nnc(COc3ccc(Cl)cc3Cl)o2)cc1OC 6.61 µM

Answer with reported TGI of CCC1CC(C)C(O)/C=C/C=C/CC(C)OC(=O)CC(O)C(OC)C1OC1OC(C)CC(O)(C(C)=O)C1O (centres undefined) > 100 µM

Answer with reported TGI of O=C1NC2c3c(I)sc(I)c3/C(=N\O)C2O1 (centres undefined) > 100 µM

Answer with reported TGI of c1cc(-c2ccc(-c3ccc(C4=NCCCN4)cc3)o2)ccc1C1=NCCCN1 > 100 µM

Answer with reported TGI of CC1CN=C(N(Cc2ccc(F)cc2)C(=O)Nc2ccc(Cl)cc2)S1 (centres undefined) > 100 µM

Answer with reported TGI of COc1cccc2c1C(=O)c1c(O)c3c(c(O)c1C2=O)CC(O)(/C(C)=N/NC(=O)CCCCC(=O)N/N=C(\C)C1(O)Cc2c(O)c4c(c(O)c2C(OC2CC(N)C(O)C(C)O2)C1)C(=O)c1c(OC)cccc1C4=O)CC3OC1CC(N)C(O)C(C)O1 (centres undefined) > 14.3 µM

Answer with reported TGI of c1ccc(NNC2=NCCN2)cc1 > 100 µM

Answer with reported TGI of COC(=O)C1(NC(=O)C(CC(=O)OCc2ccccc2)NC(=O)OCc2ccccc2)CCCCCCC1 (centres undefined) > 100 µM

Answer with reported TGI of C=CCc1cc(OC)c2c(c1)C(OC(C)=O)CC(c1ccc(OC)c(OC)c1)O2 (centres undefined) > 100 µM

Answer with reported TGI of O=[N+]([O-])c1ccc(C2N3CCCCC3[C@H]3CCCCN23)cc1 (some centres undefined) > 100 µM

Answer with reported TGI of CCOC(=O)C1C(c2ccccc2)=C(c2ccccc2)C(c2ccccc2)=C1c1ccccc1 57.4 µM

Answer with reported TGI of C=CCN(Cc1ccncc1)C(=O)C(O)(c1ccccc1)c1ccccc1 > 100 µM

Answer with reported TGI of O=C1c2ccccc2C(=Nc2ccc3ccccc3c2)C1(C1=C(c2ccccc2)C(=Nc2ccc3ccccc3c2)c2ccccc21)c1ccccc1 (centres undefined) > 100 µM

Answer with reported TGI of CC1OC(OC2C(O)C(OCCc3ccc(O)c(O)c3)OC(CO)C2OC(=O)/C=C/c2ccc(O)c(O)c2)C(O)C(O)C1OC1OCC(O)(CO)C1O (centres undefined) > 100 µM

Answer with reported TGI of COC(=O)C1=C(OC(=O)c2ccccc2)C(C(=O)OC)[C@]2(O)[C@@H](C(=O)OC)C1CC(c1ccccc1OC)[C@@H]2C(=O)OC (some centres undefined) > 100 µM

Answer with reported TGI of COC(=O)Cc1cccc2c1CCC2=O > 100 µM

Answer with reported TGI of N#C/C(=C\c1cn(Cc2ccccc2)c2ccccc12)C(=O)Nc1ncc(Cc2ccccc2Cl)s1 4.2 µM

Answer with reported TGI of COc1cc(Nc2nc3ccccc3n3cccc23)cc(OC)c1OC > 100 µM

Answer with reported TGI of CN(C)c1[se]nc2c1c(=O)n(C)c(=O)n2C > 100 µM

Answer with reported TGI of CCCCC(=O)OC[n+]1cccc(-c2c(COC(=O)NC(C)C)c(COC(=O)NC(C)C)c3n2CCC3)c1 > 100 µM

Answer with reported TGI of COC(=O)[C@]12CC[C@H]3CN(C(=O)OCc4ccccc4)[C@H]([C@H]31)[C@H](c1ccco1)N2 > 100 µM

Answer with reported TGI of CCOC(=O)Cc1csc(NC(=O)COC(=O)c2ccc(N)cc2)n1 > 100 µM

Answer with reported TGI of Cc1nn(C(=O)c2ccccc2O)c2c1C(c1ccccc1O)SC(N)=N2 (centres undefined) > 10 µM

Answer with reported TGI of N#Cc1c2c(c(Cl)n3c1nc1ccccc13)CCCC2 6.68 µM

Answer with reported TGI of COc1cc(C)c2c(c1C=O)Oc1c(c(C)c(O)c3c1C(O)OC3=O)OC2=O (centres undefined) > 100 µM

Answer with reported TGI of COc1ccc2c(c1)C(N)=C(c1ccccc1OC)C2=O > 100 µM

Answer with reported TGI of COc1ccc2c(c1)C1C(CO2)C(c2ccccc2)=NN1c1ccccc1 (centres undefined) > 100 µM

Answer with reported TGI of O=Cc1c(O)ccc2ccc(O)c(-c3c(O)ccc4ccc(O)cc34)c12 > 100 µM

Answer with reported TGI of CC(CCOc1c2ccoc2cc2oc(=O)ccc12)C1=CC(=O)C(C)(C)O1 (centres undefined) > 100 µM

* * *

# System: ACHN renal
# ASSAY INFO: NCI tumour cell line growth inhibition, 48 h
PROPERTY NAME: TGI

Answer with reported TGI of CN1CCCC1c1cccnc1.O=C(O)c1ccccc1O.O=C([O-])c1ccccc1[OH2+].O=C([O-])c1ccccc1[OH2+].O=C([O-])c1ccccc1[OH2+].[Cu+2] (centres undefined) > 100 µM

Answer with reported TGI of C=C1CC2(OC1=O)C(=O)N(C)c1ccc(I)cc12 (centres undefined) 1.83 µM

Answer with reported TGI of CCC(O)CC1OC2(CCC1C)CC1OC(=O)/C=C\C(C)(O)C(O)C(C)C(O)C(OC3CC(OC)C(O)C(C)O3)C(O)C(C)(O)CCC/C=C/C3CC(C)COC3(O)CC(O2)C1C (centres undefined) 50.9 µM

Answer with reported TGI of Cn1c2c([N+](=O)[O-])cccc2c(=O)c2c(O)cc3c(c21)C=CC(C)(C)O3 > 100 µM

Answer with reported TGI of O=C(CN=C(CN(c1ccccc1)c1ccccc1)Oc1c(Cl)cc(Cl)cc1Cl)N1c2ccccc2Sc2ccccc21 > 100 µM

Answer with reported TGI of COC1=CC(=O)c2c(ccc3ncnc(N)c23)C1=O 3.16 µM

Answer with reported TGI of CCN1C(=O)N(C)C(O)c2c1nc1ccccn1c2=O (centres undefined) > 100 µM

Answer with reported TGI of COc1ccc(/C=C/C(=O)C(C)(C)C)cc1OC > 100 µM

Answer with reported TGI of COc1ccc(-c2cn3c(nc4ccccc43)c(/C=C/c3cccs3)n2)cc1 > 100 µM

* * *

# Test system: KM20L2 colon
# ASSAY INFO: NCI tumour cell line growth inhibition, 48 h
Would you kindly list TGI for each of these compounds?

Answer with reported TGI of COC(=O)C1Cc2c([nH]c3ccccc23)C(C2CCCCC2)N1 (stereo not drawn) > 100 µM

Answer with reported TGI of O=C1c2ccccc2C(=O)N1C/C=N/NS(=O)(=O)c1ccc(F)cc1 > 100 µM

Answer with reported TGI of COc1ccc(C(c2ccc(C(C)C)cc(OC)c2=O)c2ccc(C(C)C)cc(OC)c2=O)cc1 27 µM

* * *

Would you kindly list TGI for each of these compounds?
# System: SK-OV-3 ovarian
# ASSAY INFO: NCI tumour cell line growth inhibition, 48 h

Answer with reported TGI of CCOC(=O)c1csc(CCCCCCc2nc(C(=O)OCC)cs2)n1 > 100 µM

Answer with reported TGI of CC1(C)CCC2(CC1)N[C@@H](C(=O)N[C@@H]1CC[C@@H](C(N)=O)OC1)[C@H](c1ccnc(Cl)c1F)[C@]21C(=O)Nc2cc(Cl)ccc21 9.27 µM

Answer with reported TGI of C=C1C(=O)O[C@H]2[C@H]1CC/C(CNC(=O)c1cccc3ccccc13)=C\CC[C@@]1(C)O[C@@H]21 33.1 µM

Answer with reported TGI of COc1ccc(C(c2ccc(C(C)C)cc(OC)c2=O)c2ccc(C(C)C)cc(OC)c2=O)cc1 32.3 µM

Answer with reported TGI of Cc1cc(C#N)c[n+](C)c1 > 100 µM

Answer with reported TGI of CC(C)=CC(=O)c1[nH]c2ccccc2c1CC(=O)NCCc1cn(C(c2ccccc2)(c2ccccc2)c2ccccc2)cn1 > 100 µM

Answer with reported TGI of Cc1cc(NS(=O)(=O)c2ccc(Nc3c4ccccc4nc4c(C(=O)Nc5ccc(S(N)(=O)=O)cc5)cccc34)cc2)no1 > 100 µM

Answer with reported TGI of CN(C)CCN=C1c2ccccc2-c2c(=O)n(CCN(C)C)c(O)c3cccc1c23 1.4 µM

Answer with reported TGI of Cc1c(S(=O)(=O)/N=C(\NN)Nc2ccc(Cl)cc2)sc2ccc(Cl)cc12 35.9 µM

Answer with reported TGI of COc1cc(C(=O)c2c(-c3ccccc3)oc3c(OC)cccc23)cc(OC)c1O > 100 µM

Answer with reported TGI of Oc1ccc(-c2nc3ccc4ccccc4c3c3c2CCCC3)c(O)c1 > 100 µM

Answer with reported TGI of CCN(CC)CCCC(CO)Nc1ccnc2cc(Cl)ccc12 (configuration not stated) > 100 µM

Answer with reported TGI of C=CCN(Cc1ccncc1)C(=O)C(O)(c1ccccc1)c1ccccc1 > 100 µM

Answer with reported TGI of COc1cc(/C=C/C(=O)c2ccc(Nc3nc(Nc4ccc(F)cc4)nc(Nc4ccc(Cl)cc4)n3)cc2)cc(OC)c1OC > 100 µM

Answer with reported TGI of COc1cc(N2C(=O)C(=O)C3(CCCCC3)C2=O)cc(OC)c1OC > 100 µM

Answer with reported TGI of Nc1ccccc1C#C/C=C\C#Cc1cnccn1 95.5 µM

Answer with reported TGI of O=C(CN=C(CN(c1ccccc1)c1ccccc1)Oc1c(Cl)cc(Cl)cc1Cl)N1c2ccccc2Sc2ccccc21 > 100 µM

src = PubChem BioAssay (NCI)
